Cited source for all entries: BigSolDB 2.1

settings: in acetone, 293.15 K
property: solubility (mole fraction)
Output spec: single numeric token, no unit.

Short answer for "CCCCc1nc(Cl)c(C(=O)OCOC(=O)OC(C)C)n1Cc1ccc(-c2ccccc2-c2nn[nH]n2)cc1" : solubility (mole fraction) was 0.0155

====

settings: in acetonitrile, 283.15 K
property: solubility (mole fraction)

For "CCCCc1nc(Cl)c(C(=O)OCOC(=O)OC(C)C)n1Cc1ccc(-c2ccccc2-c2nn[nH]n2)cc1" the compound record lists solubility (mole fraction) as 0.00154

====

settings: in methanol, 298.15 K
property: solubility (mole fraction)
Reply briefly: the number, and no unit.

The measured solubility (mole fraction) associated with "CCCCc1nc(Cl)c(C(=O)OCOC(=O)OC(C)C)n1Cc1ccc(-c2ccccc2-c2nn[nH]n2)cc1" reads 0.00277

====

settings: in methanol, 308.15 K
property: solubility (mole fraction)
Give a plain numeric answer without units written out.

Data point: "CCCCc1nc(Cl)c(C(=O)OCOC(=O)OC(C)C)n1Cc1ccc(-c2ccccc2-c2nn[nH]n2)cc1" ; solubility (mole fraction) = 0.00508

====

settings: in methanol, 303.15 K
property: solubility (mole fraction)
# print the numeric value only

# compound "CCCCc1nc(Cl)c(C(=O)OCOC(=O)OC(C)C)n1Cc1ccc(-c2ccccc2-c2nn[nH]n2)cc1" ; its solubility (mole fraction) = 0.00361

====

settings: in acetone, 313.15 K
property: solubility (mole fraction)
// response body must contain only the number

Query "CCCCc1nc(Cl)c(C(=O)OCOC(=O)OC(C)C)n1Cc1ccc(-c2ccccc2-c2nn[nH]n2)cc1" yields solubility (mole fraction) of 0.0364

====

settings: in acetonitrile, 293.15 K
property: solubility (mole fraction)
Write the number on its own, no unit after it.

Quick note, solubility (mole fraction) for "CCCCc1nc(Cl)c(C(=O)OCOC(=O)OC(C)C)n1Cc1ccc(-c2ccccc2-c2nn[nH]n2)cc1" landed at 0.00247

====

settings: in acetone, 278.15 K
property: solubility (mole fraction)

solubility (mole fraction) for "CCCCc1nc(Cl)c(C(=O)OCOC(=O)OC(C)C)n1Cc1ccc(-c2ccccc2-c2nn[nH]n2)cc1" is 0.00987

====

settings: in methanol, 313.15 K
property: solubility (mole fraction)
Give your answer as a number; write no unit.

Per the records, this compound ( "CCCCc1nc(Cl)c(C(=O)OCOC(=O)OC(C)C)n1Cc1ccc(-c2ccccc2-c2nn[nH]n2)cc1" ) has solubility (mole fraction) equal to 0.00772

====

settings: in acetonitrile, 278.15 K
property: solubility (mole fraction)
# output: bare number, no unit

Looking up "CCCCc1nc(Cl)c(C(=O)OCOC(=O)OC(C)C)n1Cc1ccc(-c2ccccc2-c2nn[nH]n2)cc1" , I found its solubility (mole fraction) recorded as 0.00131

====

settings: in acetone, 303.15 K
property: solubility (mole fraction)
In your answer, state the number alone without any accompanying words.

Given item "CCCCc1nc(Cl)c(C(=O)OCOC(=O)OC(C)C)n1Cc1ccc(-c2ccccc2-c2nn[nH]n2)cc1" , the value recorded as its solubility (mole fraction) is 0.0234
